B1: COX4I1 (parent)
chain: VAHVKHLSASQKALKEKEKASWSS

- Variants of: B1
- Test method notes: protein stability index of a GFP-peptide fusion (GPS, HEK-293T) (PSI 1-6); higher = more stable;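 further: lentivirally expressed fusions sorted by FACS into six bins by GFP to DsRed ratio, PSI derived from sequencing read proportions per bin multiplied by bin number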
- Measurement conditions: c terminus: a fixed tail appended
Label Yes for high-side protein stability index (at or above 3) and No for low-side protein stability index (below it).

INPUT: Evaluate "VAHVKHLSASQKACKEKEKASWSS" : protein stability index at minimum 3?
OUTPUT: Yes

INPUT: Evaluate "VAHVKHISASQKALKEKEKASWSS" : protein stability index at minimum 3?
OUTPUT: Yes

INPUT: Evaluate "VAHVKHLSASQKPLKEKEKASWSS" : protein stability index at minimum 3?
OUTPUT: Yes

INPUT: Evaluate "VAHVKHLQASQKALKEKEKASWSS" : protein stability index at minimum 3?
OUTPUT: Yes

INPUT: Evaluate "VAHVKHLSASQKALKEKEKASDSS" : protein stability index at minimum 3?
OUTPUT: Yes

INPUT: Evaluate "VAHVKHLSASQKALKEKEKAGWSS" : protein stability index at minimum 3?
OUTPUT: Yes

INPUT: Evaluate "VAHVKHLCASQKALKEKEKASWSS" : protein stability index at minimum 3?
OUTPUT: No

INPUT: Evaluate "VAHVKHLSASQKALKLKEKASWSS" : protein stability index at minimum 3?
OUTPUT: No

INPUT: Evaluate "VAHVKHLSASPKALKEKEKASWSS" : protein stability index at minimum 3?
OUTPUT: Yes

INPUT: Evaluate "VPHVKHLSASQKALKEKEKASWSS" : protein stability index at minimum 3?
OUTPUT: Yes

INPUT: Evaluate "VAHVKHLSASQKALKCKEKASWSS" : protein stability index at minimum 3?
OUTPUT: No

INPUT: Evaluate "VAHVKHLSANQKALKEKEKASWSS" : protein stability index at minimum 3?
OUTPUT: Yes

INPUT: Evaluate "VAHVKHLSASQKALKEKEKQSWSS" : protein stability index at minimum 3?
OUTPUT: No

INPUT: Evaluate "VAHVKHLSASQKALKEAEKASWSS" : protein stability index at minimum 3?
OUTPUT: Yes

INPUT: Evaluate "VAHVKHLSASQKALIEKEKASWSS" : protein stability index at minimum 3?
OUTPUT: Yes

INPUT: Evaluate "VAHVKHLWASQKALKEKEKASWSS" : protein stability index at minimum 3?
OUTPUT: No

INPUT: Evaluate "VASVKHLSASQKALKEKEKASWSS" : protein stability index at minimum 3?
OUTPUT: Yes

INPUT: Evaluate "VAHVKHLSASQKALFEKEKASWSS" : protein stability index at minimum 3?
OUTPUT: Yes

INPUT: Evaluate "VARVKHLSASQKALKEKEKASWSS" : protein stability index at minimum 3?
OUTPUT: Yes

INPUT: Evaluate "VAHDKHLSASQKALKEKEKASWSS" : protein stability index at minimum 3?
OUTPUT: Yes

INPUT: Evaluate "VAHVKHLSASQKALKEKEKASWSY" : protein stability index at minimum 3?
OUTPUT: Yes

INPUT: Evaluate "SAHVKHLSASQKALKEKEKASWSS" : protein stability index at minimum 3?
OUTPUT: Yes

INPUT: Evaluate "TAHVKHLSASQKALKEKEKASWSS" : protein stability index at minimum 3?
OUTPUT: Yes

INPUT: Evaluate "VAHVKQLSASQKALKEKEKASWSS" : protein stability index at minimum 3?
OUTPUT: Yes

INPUT: Evaluate "VAHVKHLSDSQKALKEKEKASWSS" : protein stability index at minimum 3?
OUTPUT: Yes

INPUT: Evaluate "VAHVKHLSASQKALKEKEKASWCS" : protein stability index at minimum 3?
OUTPUT: No

INPUT: Evaluate "VAHVKHLSASQKALKEKEKASCSS" : protein stability index at minimum 3?
OUTPUT: Yes

INPUT: Evaluate "VAEVKHLSASQKALKEKEKASWSS" : protein stability index at minimum 3?
OUTPUT: Yes

INPUT: Evaluate "VAHVKHQSASQKALKEKEKASWSS" : protein stability index at minimum 3?
OUTPUT: Yes

INPUT: Evaluate "VAVVKHLSASQKALKEKEKASWSS" : protein stability index at minimum 3?
OUTPUT: Yes

INPUT: Evaluate "VAHVKHLSASQKALKWKEKASWSS" : protein stability index at minimum 3?
OUTPUT: No

INPUT: Evaluate "VAHKKHLSASQKALKEKEKASWSS" : protein stability index at minimum 3?
OUTPUT: Yes

INPUT: Evaluate "VAHVKHLSASQKALKEKEKASWYS" : protein stability index at minimum 3?
OUTPUT: Yes

INPUT: Evaluate "VAHVKHLSASVKALKEKEKASWSS" : protein stability index at minimum 3?
OUTPUT: No

INPUT: Evaluate "VAHVRHLSASQKALKEKEKASWSS" : protein stability index at minimum 3?
OUTPUT: No

INPUT: Evaluate "VAHVKHLSASQKALKEKEKAEWSS" : protein stability index at minimum 3?
OUTPUT: Yes

INPUT: Evaluate "VAHVKHLSASQNALKEKEKASWSS" : protein stability index at minimum 3?
OUTPUT: Yes

INPUT: Evaluate "VAHVKHLSASQKALKEKEKASWSA" : protein stability index at minimum 3?
OUTPUT: Yes

INPUT: Evaluate "VAHVLHLSASQKALKEKEKASWSS" : protein stability index at minimum 3?
OUTPUT: Yes

INPUT: Evaluate "VAHVKHLSASQKALKEKETASWSS" : protein stability index at minimum 3?
OUTPUT: Yes

INPUT: Evaluate "VTHVKHLSASQKALKEKEKASWSS" : protein stability index at minimum 3?
OUTPUT: Yes

INPUT: Evaluate "VAHVKHLSASQKALKEKEKASWGS" : protein stability index at minimum 3?
OUTPUT: Yes

INPUT: Evaluate "VAHVKHLSASQKALLEKEKASWSS" : protein stability index at minimum 3?
OUTPUT: Yes

INPUT: Evaluate "VAHVKHLSASQKALKEKEKASWWS" : protein stability index at minimum 3?
OUTPUT: No

INPUT: Evaluate "VAHVKHLDASQKALKEKEKASWSS" : protein stability index at minimum 3?
OUTPUT: Yes

INPUT: Evaluate "VAHVKHLSASQKGLKEKEKASWSS" : protein stability index at minimum 3?
OUTPUT: Yes

INPUT: Evaluate "VAHVKHLSASQKALKEKEKAMWSS" : protein stability index at minimum 3?
OUTPUT: Yes

INPUT: Evaluate "VAHVKHLSASQKAWKEKEKASWSS" : protein stability index at minimum 3?
OUTPUT: Yes

INPUT: Evaluate "VAHVKHLSASQKALKEKEKHSWSS" : protein stability index at minimum 3?
OUTPUT: Yes

INPUT: Evaluate "VAHVYHLSASQKALKEKEKASWSS" : protein stability index at minimum 3?
OUTPUT: No

INPUT: Evaluate "VAHVKHLSASQKALKEKQKASWSS" : protein stability index at minimum 3?
OUTPUT: Yes

INPUT: Evaluate "VAHVKHLSASQKALKEKEKATWSS" : protein stability index at minimum 3?
OUTPUT: Yes

INPUT: Evaluate "VAHVKHLSASQKHLKEKEKASWSS" : protein stability index at minimum 3?
OUTPUT: Yes

INPUT: Evaluate "VAHVKHLSASQKALKEKGKASWSS" : protein stability index at minimum 3?
OUTPUT: Yes

INPUT: Evaluate "VAHVKHLSASQKALKEKEKASWFS" : protein stability index at minimum 3?
OUTPUT: Yes

INPUT: Evaluate "VAHVKSLSASQKALKEKEKASWSS" : protein stability index at minimum 3?
OUTPUT: Yes

INPUT: Evaluate "VAHVKHLNASQKALKEKEKASWSS" : protein stability index at minimum 3?
OUTPUT: Yes

INPUT: Evaluate "VAHVKHLSASEKALKEKEKASWSS" : protein stability index at minimum 3?
OUTPUT: Yes

INPUT: Evaluate "VAHVGHLSASQKALKEKEKASWSS" : protein stability index at minimum 3?
OUTPUT: Yes

INPUT: Evaluate "VAHVKHLSASQKAFKEKEKASWSS" : protein stability index at minimum 3?
OUTPUT: No

INPUT: Evaluate "VAHVKHLSASQKALKEKEKAQWSS" : protein stability index at minimum 3?
OUTPUT: Yes

INPUT: Evaluate "VAHVKHLSASQKALSEKEKASWSS" : protein stability index at minimum 3?
OUTPUT: Yes

INPUT: Evaluate "VAHVKHLSASQKALKEKEKASMSS" : protein stability index at minimum 3?
OUTPUT: Yes

INPUT: Evaluate "VAHVKHLSASDKALKEKEKASWSS" : protein stability index at minimum 3?
OUTPUT: Yes

INPUT: Evaluate "VAHVKHLSASQKALKEDEKASWSS" : protein stability index at minimum 3?
OUTPUT: Yes

INPUT: Evaluate "VAHVKHLRASQKALKEKEKASWSS" : protein stability index at minimum 3?
OUTPUT: Yes

INPUT: Evaluate "VAHVKHLSASQKALKEKHKASWSS" : protein stability index at minimum 3?
OUTPUT: Yes

INPUT: Evaluate "VAHVKHLSASQKALKPKEKASWSS" : protein stability index at minimum 3?
OUTPUT: No

INPUT: Evaluate "VIHVKHLSASQKALKEKEKASWSS" : protein stability index at minimum 3?
OUTPUT: No

INPUT: Evaluate "VAHVKHTSASQKALKEKEKASWSS" : protein stability index at minimum 3?
OUTPUT: Yes

INPUT: Evaluate "VAHVKHLSASQKALKEKEKLSWSS" : protein stability index at minimum 3?
OUTPUT: No

INPUT: Evaluate "VAHVKHLSASQKALKEKEKAAWSS" : protein stability index at minimum 3?
OUTPUT: Yes

INPUT: Evaluate "VAHVKHLTASQKALKEKEKASWSS" : protein stability index at minimum 3?
OUTPUT: Yes

INPUT: Evaluate "VAHVKMLSASQKALKEKEKASWSS" : protein stability index at minimum 3?
OUTPUT: Yes

INPUT: Evaluate "VAHVKHLSASQKALVEKEKASWSS" : protein stability index at minimum 3?
OUTPUT: Yes

INPUT: Evaluate "VLHVKHLSASQKALKEKEKASWSS" : protein stability index at minimum 3?
OUTPUT: Yes

INPUT: Evaluate "KAHVKHLSASQKALKEKEKASWSS" : protein stability index at minimum 3?
OUTPUT: Yes
